Test: Pharmacokinetics of intraperitoneal or intravenous injection in CD1 mice (plasma, LC/MS/MS)
Type: in vivo
Details: male, CD1, mouse, plasma, iv, 1 mg/kg, IV 1.0 mg/kg, 0.033 h, read-out: Conc. Mouse 1
Method: Pharmacokinetics of Intraperitoneal or Intravenous Injection of Example 1 or Example 2. The pharmacokinetics of Example 1 and 2 was examined for intraperitoneal and intravenous administration. The desired serial concentrations of working solutions were achieved by diluting stock solution (1 mg/mL in DMSO) of analyte with methanol. […] Then, 10 μL of the diluted supernatant was injected into the LC/MS/MS system for quantitative analysis. […]
value.kind: concentration at 0.033 h (ng/mL)
All answers are understood in ng/mL, so give the number only.

[Q] May I ask what concentration at 0.033 h has been recorded for COc1cc2c(Oc3ccc(NC(=O)C4(C(=O)Nc5ccc(F)cc5)CC4)cc3F)ccnc2cc1OCCCOCCCOCCC(=O)N[C@H](C(=O)N1C[C@H](O)C[C@H]1C(=O)NCc1ccc(-c2scnc2C)cc1)C(C)(C)C ?
[A] 2050
